Values from patent US9630922B2

biological target: HDAC6 (Homo sapiens, UniProt Q9UBN7); construct: Full length human recombinant HDAC6 protein was expressed in baculoviral system; assay: In vitro Histone Deacetylase Assay (enzymatic HDAC6 electrophoretic mobility shift assay); conditions: full length human recombinant HDAC6, 1 nM enzyme, 2 μM peptide substrate RHKK(Ac)-NH2, 25° C.; read-out: HDAC6 activity range
Sequence (Q9UBN7 whole entry): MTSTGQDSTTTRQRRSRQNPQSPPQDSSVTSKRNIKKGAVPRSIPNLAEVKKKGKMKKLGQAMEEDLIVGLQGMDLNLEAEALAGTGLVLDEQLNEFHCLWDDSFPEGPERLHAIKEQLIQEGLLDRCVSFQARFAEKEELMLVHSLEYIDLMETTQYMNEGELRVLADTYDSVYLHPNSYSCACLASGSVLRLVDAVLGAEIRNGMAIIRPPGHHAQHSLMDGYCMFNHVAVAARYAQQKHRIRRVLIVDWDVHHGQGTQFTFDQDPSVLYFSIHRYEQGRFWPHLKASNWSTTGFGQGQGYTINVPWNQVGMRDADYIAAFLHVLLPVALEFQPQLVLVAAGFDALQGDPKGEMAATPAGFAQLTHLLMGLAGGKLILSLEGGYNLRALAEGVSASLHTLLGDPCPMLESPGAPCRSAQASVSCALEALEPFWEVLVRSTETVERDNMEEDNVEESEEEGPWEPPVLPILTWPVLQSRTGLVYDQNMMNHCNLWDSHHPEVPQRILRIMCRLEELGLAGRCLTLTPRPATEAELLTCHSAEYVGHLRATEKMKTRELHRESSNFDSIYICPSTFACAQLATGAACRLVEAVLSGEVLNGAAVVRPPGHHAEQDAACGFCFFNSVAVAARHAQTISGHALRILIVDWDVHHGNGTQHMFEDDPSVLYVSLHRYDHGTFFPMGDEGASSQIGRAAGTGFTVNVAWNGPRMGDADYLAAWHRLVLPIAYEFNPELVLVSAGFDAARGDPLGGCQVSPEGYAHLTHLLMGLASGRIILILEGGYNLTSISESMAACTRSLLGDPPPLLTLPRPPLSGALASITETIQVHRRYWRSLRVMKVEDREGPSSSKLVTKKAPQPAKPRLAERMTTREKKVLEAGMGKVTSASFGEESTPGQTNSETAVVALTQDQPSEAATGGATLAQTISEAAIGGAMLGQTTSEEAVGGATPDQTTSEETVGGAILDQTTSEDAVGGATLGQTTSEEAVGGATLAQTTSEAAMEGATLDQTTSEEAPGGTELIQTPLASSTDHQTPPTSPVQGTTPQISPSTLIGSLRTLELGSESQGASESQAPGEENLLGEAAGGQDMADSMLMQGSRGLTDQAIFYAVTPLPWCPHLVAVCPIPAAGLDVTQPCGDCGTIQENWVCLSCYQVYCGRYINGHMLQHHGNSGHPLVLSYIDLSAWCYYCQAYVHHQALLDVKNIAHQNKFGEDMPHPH
measured quantity: IC50

Problem: # lookup: IC50 of `O=C(NO)c1ccc2c(c1)CC[C@@]1(CCN(Cc3cccc(F)c3)C1=O)C2`
Solution: ≤ 0.1 µM

Problem: # lookup: IC50 of `O=C(NO)c1ccc2c(c1)CCC1(CCN(C(=O)N3CC4(CCOCC4)c4ccccc43)CC1)O2`
Solution: > 0.5 µM

Problem: # lookup: IC50 of `COc1ccc(N2CC[C@]3(CCc4cc(C(=O)NO)ccc4C3)C2=O)cc1`
Solution: ≤ 0.1 µM

Problem: # lookup: IC50 of O=C(NO)c1ccc2c(c1)CCC1(CC(=O)N(c3ccccc3)C1)C2 (single isomer, unassigned)
Solution: ≤ 0.1 µM
